- Tested on: RPMI-8226 leukemia
- PROTOCOL TEXT: NCI tumour cell line growth inhibition, 48 h
RECORDED METRIC: GI50

MOLECULE: COc1cc2c3c(n(CCCN=[N+]=[N-])c(=O)c2cc1OC)-c1ccc(F)cc1C3=O
RECORDED METRIC: GI50
RECORDED RESULT: 1.7 µM
--
MOLECULE: COc1cc(OC)c(C(=O)/C=C/c2ccc(C#N)cc2)c(OC)c1
RECORDED METRIC: GI50
RECORDED RESULT: 1.29 µM
--
MOLECULE: COc1ccc(C2c3ccc4ccccc4c3Oc3ncn(CCCn4ccnc4)c(=N)c32)cc1OC (stereo not given)
RECORDED METRIC: GI50
RECORDED RESULT: 2.81 µM
--
MOLECULE: COc1cccc(S(=O)(=O)NC2=NCCN2C(=S)SN2CCn3c2nsc3=S)c1
RECORDED METRIC: GI50
RECORDED RESULT: 26.1 µM
--
MOLECULE: N#Cc1c(N)nc2c(c1-c1ccc(Cl)cc1)COc1ccc(F)cc1-2
RECORDED METRIC: GI50
RECORDED RESULT: 18.7 µM
